- assayed system: glucocorticoid receptor (GR) (Homo sapiens, UniProt P04150)
- Sequence (P04150 1-777): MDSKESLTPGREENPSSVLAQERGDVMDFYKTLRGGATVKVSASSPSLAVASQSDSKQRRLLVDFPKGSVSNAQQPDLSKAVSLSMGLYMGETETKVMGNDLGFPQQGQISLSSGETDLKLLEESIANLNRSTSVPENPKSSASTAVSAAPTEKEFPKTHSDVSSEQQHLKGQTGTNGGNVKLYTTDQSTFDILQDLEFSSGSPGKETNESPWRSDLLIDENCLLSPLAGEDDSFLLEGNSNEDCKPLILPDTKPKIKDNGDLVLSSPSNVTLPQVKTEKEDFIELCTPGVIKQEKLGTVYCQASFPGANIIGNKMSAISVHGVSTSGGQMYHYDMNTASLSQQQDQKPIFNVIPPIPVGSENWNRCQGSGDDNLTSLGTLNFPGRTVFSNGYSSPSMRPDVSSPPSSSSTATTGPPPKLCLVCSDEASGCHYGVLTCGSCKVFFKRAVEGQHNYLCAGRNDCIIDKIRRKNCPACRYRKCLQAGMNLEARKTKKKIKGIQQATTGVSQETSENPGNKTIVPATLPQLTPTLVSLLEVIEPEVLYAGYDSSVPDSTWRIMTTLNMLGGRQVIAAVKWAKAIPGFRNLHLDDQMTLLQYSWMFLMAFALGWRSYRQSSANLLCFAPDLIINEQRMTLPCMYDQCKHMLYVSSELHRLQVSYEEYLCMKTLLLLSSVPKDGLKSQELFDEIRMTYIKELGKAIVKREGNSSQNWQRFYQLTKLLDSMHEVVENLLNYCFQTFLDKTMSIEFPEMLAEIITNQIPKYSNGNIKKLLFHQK
- assay explanation: GR-EFC nuclear translocation assay
- Format: cell-based
- condition label: read-out: qEC50; qHTS curve fit; class 4 values are fit defaults
pEC50: −log10 of the molar value.
measured quantity: pEC50

Lookup: If you can, please state the reported pEC50 value of CC(=O)[C@H]1CC[C@H]2[C@@H]3C[C@H](C)C4=CC(=O)CC[C@]4(C)[C@H]3[C@@H](O)C[C@]12C .
Found: 5.38

Lookup: What value of measured pEC50 is listed for C[C@]12CC[C@H]3c4ccc(OC[C@H]5CO5)cc4CC[C@H]3[C@H]1CC[C@@H]2O ?
Found: < 5.05

Lookup: Would you mind telling me what pEC50 value was observed for CCC[C@@H]1CC2=CC(=O)CC[C@]2(C)[C@@H]2CC[C@@]3(C)[C@H](CC[C@]3(O)CCC(=O)O)[C@H]12 ?
Found: < 5.05

Lookup: Record request: pEC50 value, item C[C@@]12CC[C@@H]3c4ccc(OS(=O)(=O)O)cc4CC[C@H]3[C@H]1CCC2=O
Found: < 5.05

Lookup: # input compound: CC(=O)[C@@]1(O)CC[C@H]2[C@@H]3C[C@H](C)C4=CC(=O)C=C[C@]4(C)[C@@]3(F)[C@@H](O)C[C@@]21C ; wanted: its pEC50
Found: 8.09

Lookup: Requested read-out: pEC50. Entry: COc1ccc2c(c1)CC[C@H]1[C@H]2CC[C@]2(C)[C@H](NCCCCCCN3C(=O)C=CC3=O)CC[C@@H]12
Found: < 5.05

Lookup: Endpoint output: pEC50 of C[C@@]12CC[C@H](O)C[C@@H]1CC[C@H]1[C@@H]2C[C@@H](O)[C@]2(C)[C@@H](C3=CC(=O)OC3)CC[C@]12O . Value?
Found: < 5.05

Lookup: Please report the recorded pEC50 for CC(=O)O[C@H]1C[C@H]2CC[C@@H]3[C@H]4C[C@@H]([N+]5(C)CCCCC5)[C@@H](OC(C)=O)[C@]4(C)CC[C@@H]3[C@@]2(C)C[C@@H]1[N+]1(C)CCCCC1 .
Found: < 5.05

Lookup: Sample C[C@H]1CC[C@@]2(NC1)O[C@@H]1C[C@H]3[C@@H]4CC=C5C[C@@H](O)CC[C@]5(C)[C@@H]4CC[C@]3(C)[C@@H]1[C@@H]2C — what was its pEC50?
Found: < 5.05

Lookup: For the compound C[C@]12CC[C@H](O)CC1=CC[C@@H]1[C@H]2CC[C@]2(C)C(=O)CC[C@H]12 , what pEC50 is on record?
Found: < 5.05

Lookup: # query: pEC50 of entry C[C@]12C=CC(=O)C=C1CC[C@@H]1[C@H]3C[C@@H](O)[C@](O)(C(=O)CO)[C@]3(C)C[C@H](O)[C@]12F
Found: 6.56

Lookup: // query pEC50 value for entry C[C@H](CCC(=O)O)[C@H]1CC[C@H]2[C@@H]3[C@H](O)C[C@@H]4C[C@H](O)CC[C@]4(C)[C@H]3C[C@H](O)[C@]12C
Found: < 5.05

Lookup: Look at this compound and give its reported pEC50. C[C@@]12CC[C@H]3[C@@H](CCC4=C(O)C(=O)CC[C@]43C)[C@H]1CCC2=O
Found: < 5.05

Lookup: # input compound: C[C@]12CC[C@H]3[C@@H](CCC4=CC(=O)CC[C@@]43C)[C@@H]1CC[C@@H]2C(=O)CO ; wanted: its pEC50
Found: < 5.05

Lookup: Can you look up the measured pEC50 of CC(=O)O[C@H]1CC[C@@]2(C)C(=CC[C@@H]3[C@@H]2CC[C@]2(C)C(=O)CC[C@@H]32)C1 for me?
Found: < 5.05

Origin of measurements: paper PMC2654417
